Overview of reported EC50 across a group of binders:
biological target: T1, cyno CCR8 (cynomolgus monkey, UniProt O97665 1-356 (rhesus entry)); assay: flow cytometry titration on CHO cells stably expressing cyno CCR8 (14 h, room temperature)
T1 construct: also called cynomolgus CCR8; cyCCR8
T1 sequence (O97665 other isoform, or with tags, fused parts or gaps): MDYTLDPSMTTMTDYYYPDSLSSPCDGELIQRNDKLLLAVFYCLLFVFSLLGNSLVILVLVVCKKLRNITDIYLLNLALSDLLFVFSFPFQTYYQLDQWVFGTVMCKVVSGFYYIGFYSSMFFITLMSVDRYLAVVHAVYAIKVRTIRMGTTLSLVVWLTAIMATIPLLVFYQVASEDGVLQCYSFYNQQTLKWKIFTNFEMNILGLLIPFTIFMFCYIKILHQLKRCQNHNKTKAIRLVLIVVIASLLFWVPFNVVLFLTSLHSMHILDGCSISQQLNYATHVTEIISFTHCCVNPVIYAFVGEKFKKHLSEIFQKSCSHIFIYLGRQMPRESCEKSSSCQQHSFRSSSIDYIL
Hey, just the number and the unit after it is fine.

Answered examples (2):
binder	observation.type	data.value
anti-CCR8 1889 S12P.I29V.E95dS (PVS) (antibody, V domains shown) VH: EVQLLESGGGLVQPGGSLRLSCAASGIDLSTYAMGWVREAPGKGLEWVGLIHRSGRTYYATWAKGRFTISKDSSKNTLYLQMNSLRAEDTAVYYCTRSYPDYSATASIWGQGTTVTVSS VL: DIQVTQSPSSLPASVGDRVTITCQASENVANALAWYQKKPGKPPKFLIYGASNLASGVPSRFSGSGSGTDFTFTISSLQPEDIATYYCQQAYYGNSFVSGTFGGGTKVEIK	EC50	3.13 nM
anti-CCR8 1889 S12P.I29V (PV) (antibody, V domains shown) VH: EVQLLESGGGLVQPGGSLRLSCAASGIDLSTYAMGWVREAPGKGLEWVGLIHRSGRTYYATWAKGRFTISKDSSKNTLYLQMNSLRAEDTAVYYCTRSYPDYSATASIWGQGTTVTVSS VL: DIQVTQSPSSLPASVGDRVTITCQASENVANALAWYQKKPGKPPKFLIYGASNLASGVPSRFSGSGSGTDFTFTISSLQPEDIATYYCQQAYYGNSFVEGTFGGGTKVEIK	EC50	7.67 nM

Okay, now this binder:
Q. Requested read-out: EC50. Entry: anti-CCR8 1889 S12P.I29V.E95dS.Y58A (PVSA) (antibody, V domains shown, It is put together from the printed names of the heavy and light chain variants) VH: EVQLLESGGGLVQPGGSLRLSCAASGIDLSTYAMGWVREAPGKGLEWVGLIHRSGRTAYATWAKGRFTISKDSSKNTLYLQMNSLRAEDTAVYYCTRSYPDYSATASIWGQGTTVTVSS VL: DIQVTQSPSSLPASVGDRVTITCQASENVANALAWYQKKPGKPPKFLIYGASNLASGVPSRFSGSGSGTDFTFTISSLQPEDIATYYCQQAYYGNSFVSGTFGGGTKVEIK
A. 3.39 nM
